method: Induction of anti-CD3/CD28 antibodies-stimulated human CD8+ T cell activation at 10 uM assessed fold increase in cell proliferation measured by flow cytometry analysis
Format: functional, T cell line
fold change (FC) by entry:

{"columns": ["compound", "censoring.sign", "fold change (FC)"],
 "data": [
  ["Cn1cnnc1CC1(c2cccc(N3Cc4c(cc(CN5CC(F)C5)cc4C(F)(F)F)C3=O)c2)COC1", ">", 4],
  ["Cc1cc(C(=O)Nc2cccc([C@@H](C)Cc3nncn3C)c2)nc(C2CC2)n1", ">", 4],
  ["C[C@H](Cc1nncn1C)c1cccc(NC(=O)c2nc(C(F)(F)F)c[nH]2)c1", "=", 3.01],
  ["C[C@H](Cc1nncn1C)c1cccc(N2Cc3c(cc(CN4CC(C)(O)C4)cc3C(F)(F)F)C2=O)c1", ">", 4],
  ["C[C@@H](c1cc2c(c(C(F)(F)F)c1)CN(c1cccc(C3(Cc4nncn4C)COC3)c1)C2=O)N1CC[C@H](F)C1", ">", 4],
  ["C[C@H](Cc1nncn1C)c1cccc(N2Cc3c(cc(CN4CC[C@H](F)C4)cc3C(F)(F)F)C2=O)c1", ">", 4],
  ["C[C@H](Cc1nncn1C)c1cccc(N2Cc3c(cc(CN4CC(O)C4)cc3C(F)(F)F)C2=O)c1", "=", 2.01],
  ["Cn1cnnc1C(F)(F)[C@](C)(F)c1cccc(N2Cc3c(cc(C(=O)N4CC[C@H](O)C4)cc3C(F)(F)F)C2=O)c1", "=", 3.01],
  ["C[C@H](Cc1nncn1C)c1cccc(N2Cc3c(ccnc3C3CC3)C2=O)c1", "=", 3.01],
  ["Cn1cnnc1CC1(c2cccc(NC(=O)c3nc4c(C(F)(F)F)cccc4[nH]3)c2)COC1", "=", 3.01]
]}

---

method: Induction of anti-CD3/CD28 antibodies-stimulated human T cell activation at 1.11 uM assessed fold increase in IFN-gamma secretion measured by ELISA assay
Assay type: functional, T cell line

{"columns": ["compound", "fold change (FC)"],
 "data": [
  ["Cn1cnnc1[C@@H]1C[C@@H]1c1cccc(N2Cc3c(cccc3C(F)(F)F)C2=O)c1", "<=2"],
  ["Cn1cnnc1[C@@H]1C[C@@H]1c1cccc(N2Cc3c(ccnc3C(F)(F)F)C2=O)c1", "<=2"],
  ["C[C@H](Cc1nncn1C)c1cccc(N2Cc3c(cccc3C(F)(F)F)C2=O)c1.Cl", 3.01],
  ["Cc1n[nH]c(C)c1-c1cc2c(c(C(F)(F)F)c1)CN(c1cccc(C3(Cc4nncn4C)COC3)c1)C2=O", "<=2"],
  ["Cn1cnnc1C(F)(F)[C@](C)(F)c1cccc(N2Cc3c(cc(CN4CC[C@@H](C#N)C4)cc3C(F)(F)F)C2=O)c1", ">4"],
  ["Cc1cc(C(=O)Nc2cccc([C@H](C)Cc3nncn3C)c2)nc(C2CC2)n1", 2.01],
  ["C[C@H](Sc1nncn1C)c1cccc(NC(=O)c2cc(C(=O)N3CC[C@H](O)C3)ccn2)c1", 2.01],
  ["C[C@H](Sc1nncn1C)c1cccc(NC(=O)c2cccc(C(F)(F)F)n2)c1", "<=2"],
  ["C[C@H](Cc1nncn1C)c1cccc(NC(=O)c2n[nH]c3c2CCC3)c1", "<=2"],
  ["Cn1cnnc1CC1(c2cccc(NC(=O)c3nc4c(C(F)(F)F)cccc4[nH]3)c2)COC1", ">4"],
  ["Cn1cnnc1CC1(c2cccc(N3Cc4c(cc(CN5CC[C@H](C#N)C5)cc4C(F)(F)F)C3=O)c2)COC1", 3.01]
]}

---

Reported fold change (FC) values follow for various molecules
method: Induction of anti-CD3/CD28 antibodies-stimulated human T cell activation at 4 uM assessed fold increase in IL-2 secretion measured by ELISA assay
Format: functional, T cell line

{"columns": ["molecule", "fold change (FC)"],
 "data": [
  ["CC(Sc1nncn1C)c1cccc(NC(=O)c2ccc3ccccc3n2)c1 (stereo not drawn)", 2.51],
  ["CC(Cc1nncn1C)c1cc(N[C@@H]2CCOC2)nc(N2Cc3c(cccc3C(F)(F)F)C2=O)c1 (single isomer, unassigned)", 1.01],
  ["Cn1cnnc1C[C@]1(c2cccc(N3Cc4c(cccc4C(F)(F)F)C3=O)c2)C[C@H](CO)C1", 5],
  ["Cc1conc1C[C@@H](C)c1cccc(NC(=O)c2ccnc(C(F)(F)F)n2)c1", 2.51],
  ["CC1CCc2c1n[nH]c2C(=O)Nc1cccc([C@H](C)Cc2nncn2C)c1 (stereo partly drawn)", 5],
  ["C[C@H](Cc1nncn1C)c1cccc(NC(=O)c2cccc(CCO)n2)c1", 2.51],
  ["Cn1cnnc1[C@H](F)[C@@](C)(F)c1cccc(N2Cc3c(cc(C4CC4)cc3C(F)(F)F)C2=O)c1 (single isomer, unassigned; 483)", 1.01],
  ["Cc1ccc(C(=O)Nc2cccc([C@H](C)Cc3nnc[nH]3)c2)nc1C1CC1", 1.01],
  ["C[C@H](Cc1nncn1C)c1cccc(NC(=O)c2n[nH]c3c2CCC3)c1", 2.51],
  ["Cc1c[nH]nc1C[C@H](C)c1cccc(N2Cc3c(cccc3C(F)(F)F)C2=O)c1 (single isomer, unassigned)", 1.01],
  ["C[C@H](Sc1nncn1C)c1cccc(NC(=O)c2ccc(Cl)c(C(F)(F)F)n2)c1", 1.01]
]}

---

method: Induction of anti-CD3 antibodies-stimulated human CD8+ T cell activation at 1.11 uM assessed fold increase in CD69 expression measured by flow cytometry analysis; note: reference of the scale not given here
Type: functional, T cell line

{"columns": ["compound", "fold change (FC)"],
 "data": [
  ["C[C@H](Cc1nncn1C)c1cccc(N2Cc3c(cc(CN4CC(O)C4)cc3C(F)(F)F)C2=O)c1", "<=1.2"],
  ["C[C@H](Sc1nncn1C)c1cccc(NC(=O)c2cccc(C(F)(F)F)n2)c1", "<=1.2"],
  ["C[C@H](Cc1nncn1C)c1cccc(NC(=O)c2cccc(CCO)n2)c1", "<=1.2"],
  ["Cn1cnnc1CC1(c2cccc(N3Cc4c(cc(CN5CCC6(CC6)C5)cc4C(F)(F)F)C3=O)c2)COC1", 1.401],
  ["C[C@H](Cc1nncn1C)c1cccc(N2Cc3c(cc(CN4CC[C@H](F)C4)cc3C(F)(F)F)C2=O)c1", 1.401]
]}

---

method: Induction of anti-CD3/CD28 antibodies-stimulated human T cell activation at 0.3 uM assessed fold increase in CD25 expression measured by ELISA assay
Type: functional, T cell line

{"columns": ["compound", "fold change (FC)"],
 "data": [
  ["Cn1cnnc1CC1(c2cccc(N3Cc4c(cc(CN5CC(C#N)C5)cc4C(F)(F)F)C3=O)c2)COC1", 1.01],
  ["C[C@H](Cc1nncn1C)c1cccc(NC(=O)c2cc(C(C)(C)O)cc(C(F)(F)F)n2)c1", 1.01],
  ["Cn1cnnc1CC1(c2cccc(N3Cc4c(cc(CN5CC[C@H](CO)C(F)(F)C5)cc4C(F)(F)F)C3=O)c2)COC1", 1.31]
]}

---

fold change (FC) values for the compounds below.
method: Induction of anti-CD3/CD28 antibodies-stimulated human T cell activation at 1 uM assessed fold increase in CD25 expression measured by ELISA assay
Assay type: functional, T cell line
parameter: fold change (FC)

{"columns": ["compound", "parameter", "test.result"],
 "data": [
  ["Cc1c[nH]nc1-c1cc([C@H](C)Cc2nncn2C)cc(N2Cc3c(cccc3C(F)(F)F)C2=O)n1", "fold change (FC)", 1.01],
  ["C[C@H](Cc1nncn1C)c1cccc(NC(=O)c2cc(O[C@@H]3CC[C@@H](O)C3)ccn2)c1 (relative stereo)", "fold change (FC)", 1.01],
  ["Cn1cnnc1-c1cnn(C)c1-c1cccc(N2Cc3c(cccc3C(F)(F)F)C2=O)c1", "fold change (FC)", 1.01],
  ["Cn1cnnc1CC1(c2cccc(N3Cc4c(cc(CN5CC(C)(C#N)C5)cc4C(F)(F)F)C3=O)c2)COC1", "fold change (FC)", 1.31],
  ["Cn1cnnc1CC1(c2cccc(N3Cc4c(cc(CN5CCc6ccccc6C5)cc4C(F)(F)F)C3=O)c2)COC1", "fold change (FC)", 1.31],
  ["Cn1cnnc1C(F)(F)[C@](C)(F)c1cccc(N2Cc3c(cc(CN4CC(F)C4)cc3C(F)(F)F)C2=O)c1", "fold change (FC)", 1.01],
  ["CN(C)Cc1cc(C(=O)Nc2cccc(C3(Cc4nncn4C)COC3)c2)nc(C2CC2)n1", "fold change (FC)", 1.31]
]}

---

method: Induction of anti-CD3 antibodies-stimulated human T cell activation at 1 uM assessed fold increase in IL-2 secretion measured by ELISA assay; note: reference of the scale not given here
Format: functional, T cell line
Each item that follows carries a reported fold change (FC).
parameter: fold change (FC)

{"columns": ["compound", "test.result"],
 "data": [
  ["C[C@H](Cc1nncn1C)c1cccc(NC(=O)c2cnn3cccnc23)c1", 0.051],
  ["CN1CC2CC(C1)N2c1cc2c(c(C(F)(F)F)c1)CN(c1cccc([C@@](C)(F)C(F)(F)c3nncn3C)c1)C2=O", 0.051],
  ["C[C@H]1CN(C)CCN1c1cc2c(c(C(F)(F)F)c1)CN(c1cccc([C@@](C)(F)C(F)(F)c3nncn3C)c1)C2=O", 0.101],
  ["Cn1cnnc1C(F)(F)[C@](C)(F)c1cccc(N2Cc3c(cc(CN4CC[C@@H](C#N)C4)cc3C(F)(F)F)C2=O)c1", 0.151],
  ["Cn1cnnc1CC1(c2cccc(NC(=O)c3[nH]nc4c3OCCC4)c2)COC1", 0.051],
  ["Cc1c[nH]nc1-c1cc([C@H](C)Cc2nncn2C)cc(N2Cc3c(cccc3C(F)(F)F)C2=O)n1", 0.051],
  ["Cc1cc(C(=O)Nc2cccc(C3(C(F)(F)c4nncn4C)COC3)c2)nc(C2CC2)n1", 0.101],
  ["Cc1cc2c(c(C3CC3)n1)CN(c1cccc([C@H](C)Cc3nncn3C)c1)C2=O", 0.051]
]}
